- Target Desc: p53 Y220C (Homo sapiens, UniProt P04637, Y220C)
- Method Notes: Luciferase Reporter Assay (Luc), p53 response element, NClH1299 cells with inducible p53 Y220C
- Type: cell-based
- Settings: luciferase reporter, NClH1299 inducible p53 Y220C, 6 hour; read-out: Luc P53 Y220C AC50
Metric Name: AC50

Please review the entries below; each comes with its answer.
| Compound | Result |
| --- | --- |
| CNC(=O)c1ccc(F)c(NCC#Cc2nc3c(N[C@@H]4CCN(C)C[C@@H]4F)cccn3c2SC(F)(F)F)c1 [Example 159] | < 750 nM |
| CNC(=O)c1ccc(NCC#Cc2cc3c(N[C@@H]4CCN(C)C[C@@H]4F)cccn3c2SC(F)F)c(OC)c1 [Example 135] | < 750 nM |
| CNC(=O)c1ccc(NCC#Cc2nc3c(N[C@@H]4CCN(CC(C)(C)O)C[C@@H]4F)cccn3c2SC(F)(F)F)c(OC)c1 [Example 164] | < 750 nM |
| COc1cc(C(=O)N2CCCC2)ccc1NCC#Cc1nc2c(N[C@@H]3CCN(C)C[C@@H]3F)cccn2c1CC(F)(F)F [Example 50] | 750 to 1500 nM |
| CNC(=O)c1ccc(OC)c(NCC#Cc2nc3c(N[C@H]4C[C@@H]5CC[C@@H](N5)[C@H]4F)cccn3c2SC(F)(F)F)c1 [Example 203] | < 750 nM |
| CNC(=O)c1ccc(OC)c(NCC#Cc2nc3c(N[C@@H]4CN(C)C[C@@H]4F)cccn3c2SC(F)(F)F)c1 [Example 153] | < 750 nM |
| C=C(F)C(=O)Nc1cc(NC2CCN(C)CC2)c2nc(C#CCNc3ccc(C(=O)NC)cc3OC)c(CC(F)(F)F)n2c1 [Example 90] | > 3000 nM |
| CNC(=O)c1ccc(NCC#Cc2nc3c(N[C@@H]4CCN(C)C[C@@H]4F)cccn3c2CC(F)(F)F)c(C2CC2)c1 [Example 57] | > 3000 nM |
| CN1CC[C@@H](Nc2cccn3c(CC(F)(F)F)c(C#C[C@H](O)c4ccccc4)nc23)[C@@H](F)C1 [Example 73] | > 3000 nM |
| CCNC(=O)c1ccc(OC)c(NCC#Cc2nc3c(N[C@@H]4CCN(C)C[C@@H]4F)cccn3c2SC(F)(F)F)c1 [Example 108] | < 750 nM |

Request body: readout AC50, system p53 Y220C (Homo sapiens, UniProt P04637, Y220C), query CNC(=O)c1cnc(NCC#Cc2nc3c(N[C@@H]4CCN(C)C[C@@H]4F)cccn3c2SC(F)(F)F)c(OC)c1 [Example 136] . Return the value.
1500 to 3000 nM

Try COc1ccc(C(=O)N2CCC2)cc1NCC#Cc1nc2c(N[C@@H]3CCN(C)C[C@@H]3F)cccn2c1SC(F)(F)F [Example 144] next.
750 to 1500 nM

Try CNC(=O)c1ccc(NCC#Cc2nc3c(N[C@@H]4CCN(C)C[C@@H]4F)nccn3c2SC(F)(F)F)c(OC)c1 [Example 206] next.
< 750 nM

Try CNC(=O)c1ccc(OC)c(NCC#Cc2nc3c(N[C@@H]4CCN(C)C[C@@H]4F)nccn3c2SC(F)(F)F)c1 [Example 212] next.
< 750 nM

----------
- Target Desc: p53 Y220C (Homo sapiens, UniProt P04637, Y220C)
- Method Notes: Luciferase Reporter Assay (Luc), p53 response element, NClH1299 cells with inducible p53 Y220C
- Type: cell-based
- Settings: AC50; luciferase reporter, NClH1299 inducible p53 Y220C, 6 hour; read-out: Luc P53 Y220C AC50
Each entry below lists one item and its recorded AC50 value.

| Compound | Metric Name | Result |
| --- | --- | --- |
| COc1ccc(C(=O)NC[C@H](O)CO)cc1NCC#Cc1cc2c(N[C@@H]3CCN(C)C[C@@H]3F)cccn2c1SC(F)(F)F [Example 425] | AC50 | < 750 nM |
| CC(C)(O)CNC(O)c1ccc(NCC#Cc2cc3c(N[C@@H]4CCNC[C@@H]4F)cccn3c2SC(F)(F)F)cc1 (stereo partly shown) [Example 372] | AC50 | < 750 nM |
| CNC(=O)c1ccc(NCC#Cc2cc3c(N[C@@H]4CCN(C)C[C@@H]4F)nccn3c2SC(F)(F)F)c(C#N)c1 [Example 301] | AC50 | 750 to 1500 nM |

Please look at the following compound next.
Any idea what AC50 was measured for CNC(=O)c1ccc(NCC#Cc2cc3c(N[C@@H]4CCN(C)C[C@@H]4F)cccn3c2SC(F)(F)F)c(C(F)F)c1 [Example 450] ?
< 750 nM

----------
- Target Desc: p53 Y220C mutant protein (amino acid residues 94-293) (Homo sapiens, UniProt P04637, Y220C)
- Construct: p53 Y220C mutant protein (amino acid residues 94-293)
- Method Notes: Surface Plasmon Resonance (SPR) assay, Kd_kinetic
- Type: binding
- Settings: read-out: SPR P53 Y220C KD kinetic
Metric Name: Kd

Please review the entries below; each comes with its answer.
| Smiles Record | Kd |
| --- | --- |
| COc1cc(S(C)(=O)=O)ccc1NCC#Cc1cc2c(N[C@@H]3CCN(C)C[C@@H]3F)nccn2c1SC(F)(F)F | < 10 nM |
| CNC(=O)c1ccc(OC)c(NCC#Cc2nc3c(N[C@@H]4CCN(C)C[C@@H]4F)cccn3c2CC(F)(F)F)n1 | < 10 nM |

Please look at the following compound next.
Any idea what Kd was measured for `CN1CC[C@H](Nc2cccn3c(SC(F)(F)F)c(C#CCNc4ccc(P(C)(C)=O)c5scnc45)cc23)[C@H](F)C1` ?
< 10 nM

----------
- Target Desc: p53 Y220C mutant protein (amino acid residues 94-293) (Homo sapiens, UniProt P04637, Y220C)
- Construct: p53 Y220C mutant protein (amino acid residues 94-293)
- Method Notes: Thermal Shift Assay (TSA), dTM
- Format: binding
- Settings: thermal shift, 10 uM compound; read-out: TSA P53 Y220C dTM (10 uM)
- Procedure: Thermal Shift Assay (TSA) Protocol 5 μM recombinant p53 Y220C mutant protein (amino acid residues 94-293) was incubated with 10 μM or 100 μM compound for 3 hours at 20 °C in buffer containing 20 mM HEPES, pH7.4, 100 mM NaCl, 0.01% Pluronic F-127, and 1% DMSO in the presence of 400-fold diluted Sypro Orange (ThermoFisher Scientific catalog number 4461146), on a 384-well PCR plate (Applied Biosystems catalog number 4483285). The volume was 5 μL/well. […]
Each entry below lists one item and its recorded ΔTm at 10 µM value.

| Compound | Result |
| --- | --- |
| COc1ccc(C(=O)NC2CC2)cc1NCC#Cc1nc2c(N[C@@H]3CCN(C)C[C@@H]3F)cccn2c1SC(F)(F)F [Example 109] | ≥ 10 °C |
| CNC(=O)c1ccc(NCC#Cc2nc3c(N[C@@H]4CCc5nncn5C4)cccn3c2SC(F)(F)F)c(OC)c1 [Example 192] | ≥ 10 °C |
| CNC(=O)c1ccc(NCC#Cc2nc3c(N[C@H]4CCNC(=O)C4)cccn3c2SC(F)(F)F)c(OC)c1 [Example 174] | ≥ 10 °C |
| CNC(=O)c1cc(NCC#Cc2cc3c(N[C@@H]4CCN(C)C[C@@H]4F)nccn3c2SC(F)(F)F)c2nccn2c1 [Example 186] | ≥ 10 °C |
| CNC(=O)c1ccc(NCC#Cc2nc3c(N[C@H]4CCC(=O)N(C)C4)cccn3c2SC(F)(F)F)c(OC)c1 [Example 187] | ≥ 10 °C |
| CNC(=O)c1ccc(NCC#Cc2nc3c(N[C@@H]4CCC(=O)NC4)cccn3c2SC(F)(F)F)c(OC)c1 [Example 182] | 5 to 10 °C |

Any idea what ΔTm at 10 µM was measured for CNC(=O)c1ccc(NCC#Cc2nc3c(NCC4(F)CN(C)C4)cccn3c2SC(F)(F)F)c(OC)c1 [Example 181] ?
5 to 10 °C

Try CNC(=O)c1ccc(NCC#Cc2nc3c(NC4CC5(C4)CN(CC(F)F)C5)cccn3c2SC(F)(F)F)c(OC)c1 [Example 173] next.
5 to 10 °C

Try CNC(=O)c1ccc(NCC#Cc2nc3c(N[C@@H]4CCN(C)C[C@@H]4F)cccn3c2SC(F)F)c(OC)c1 [Example 106] next.
5 to 10 °C

Try CNC(=O)c1ccc(NCC#Cc2nc3c(N[C@@H]4CCN(C)C[C@@H]4F)nccn3c2SC(F)(F)F)c(OC)c1 [Example 206] next.
≥ 10 °C

Try CNC(=O)c1ccc(OC)c(NCC#Cc2nc3c(N[C@@H]4C[C@H]5CC[C@H](N5)[C@@H]4F)cccn3c2SC(F)(F)F)c1 [Example 202] next.
≥ 10 °C
